System: A549
Test: Cytotoxicity against human A549 cells assessed as reduction in cell viability up to 120 ug/ml after 24 hrs by tryphan blue exclusion assay
Type: cell-based
Condition Details: a549, 24 h
Measurement Label: Activity

- Compound: "O=c1ccc2ccc(O)cc2o1"
  System Name: "A549"
  Observed Value: "Non-Toxic"
- Compound: "O=c1ccc2cc(O)ccc2o1 [6-HYDROXYCOUMARIN]"
  System Name: "A549"
  Observed Value: "Non-Toxic"
- Compound: "Nc1ccc2c(C(F)(F)F)cc(=O)oc2c1"
  System Name: "A549"
  Observed Value: "Non-Toxic"
- Compound: "O=c1ccc2c(O)c(O)c(O)cc2o1"
  System Name: "A549"
  Observed Value: "Non-Toxic"
- Compound: "O=c1ccc2cc(O)c(O)c(O)c2o1"
  System Name: "A549"
  Observed Value: "Non-Toxic"
- Compound: "Nc1ccc2c(C(F)(F)F)cc(=O)oc2c1O"
  System Name: "A549"
  Observed Value: "Non-Toxic"
- Compound: "O=c1ccc2c(O)c(O)ccc2o1"
  System Name: "A549"
  Observed Value: "Non-Toxic"
- Compound: "Cc1cc(=O)oc2c(O)c(O)ccc12"
  System Name: "A549"
  Observed Value: "Non-Toxic"
